In this section, each of the compounds is paired with its reported inhibition.
# Test system: Large T antigen (Simian virus 40) (UniProt P03070)
# Sequence (P03070 whole entry, looked up): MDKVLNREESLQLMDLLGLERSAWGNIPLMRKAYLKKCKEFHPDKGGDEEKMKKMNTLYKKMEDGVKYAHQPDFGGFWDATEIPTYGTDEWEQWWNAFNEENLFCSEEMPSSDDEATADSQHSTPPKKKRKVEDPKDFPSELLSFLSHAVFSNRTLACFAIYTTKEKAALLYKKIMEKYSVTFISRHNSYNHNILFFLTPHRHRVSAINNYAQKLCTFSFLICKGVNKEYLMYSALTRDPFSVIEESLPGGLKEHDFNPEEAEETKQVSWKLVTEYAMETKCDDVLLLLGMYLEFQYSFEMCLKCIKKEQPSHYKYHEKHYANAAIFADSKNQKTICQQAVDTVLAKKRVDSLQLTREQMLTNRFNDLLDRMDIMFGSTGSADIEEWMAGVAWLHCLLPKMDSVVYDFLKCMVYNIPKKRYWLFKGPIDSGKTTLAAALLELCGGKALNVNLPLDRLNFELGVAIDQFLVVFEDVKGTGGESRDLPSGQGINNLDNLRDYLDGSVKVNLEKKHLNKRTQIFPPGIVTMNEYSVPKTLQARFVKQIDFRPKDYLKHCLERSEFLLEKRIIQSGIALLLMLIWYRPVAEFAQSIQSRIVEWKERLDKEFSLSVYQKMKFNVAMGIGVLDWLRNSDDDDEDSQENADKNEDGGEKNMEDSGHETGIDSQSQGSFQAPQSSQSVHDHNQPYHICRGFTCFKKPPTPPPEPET
# Measurement description: SV40 large T antigen inhibitors, biochemical (AID 1903)
# Condition context: SV40 large T antigen ATPase/helicase inhibition assay; at 20 µM; stronger effect = higher value
About 1,200 (0.39%) of roughly 310,000 compounds were called active. These entries were drawn from the full list. Entries with a potency or affinity are not part of this list.
Observable: inhibition (%)

* Cc1ccnc(Nc2nc(-c3ccc(O)c(O)c3)cs2)c1 | 32.9
* c1ccc(-c2csc(Nc3ccccn3)n2)cc1 | 9.23
* O=C(Nc1ccccc1)/C(=C\c1ccncc1)NC(=O)c1ccccc1 | 5.96
* Cc1ccc(-c2oc3ncnc(N)c3c2-c2ccc(C)cc2)cc1 | 5.86
* Cc1ccc(NC(=O)/C(=C\c2cccs2)NC(=O)c2ccccc2)cc1 | 3
* Cc1ccc(NC(=O)/C(=C/c2ccncc2)NC(=O)c2ccccc2)cc1 | 13.5
* Cc1csc(Nc2cccc3ccccc23)n1 | 11.9
* c1ccc(-c2csc(Nc3ncccn3)n2)cc1 | 0.05
* COc1ccc(-c2oc3ncnc(N)c3c2-c2ccccc2)cc1 | 5.94
* CCn1ccnc1CNC(=O)CC1C(=O)NCCN1Cc1ccc(OC)cc1OC (configuration not stated) | 8.33
* Cc1ccc(Nc2nc(-c3ccc(F)cc3)cs2)nc1 | 9.89
* CC(=O)Nc1ccc(NC(=O)/C(=C/c2ccco2)NC(=O)c2ccccc2)cc1 | 14.8
